method: human hepatoma cell viability loss – ATP luminescence, cytotoxicity control for P. falciparum antimalarial project, primary screen (AID 2303);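 note: 0% = DMSO wells and 100% = digitonin-killed cells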
testContext: HepG2 viability, 24-48 h, at 10 µM
Activity calls are given as the source filed them.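 Rule for the calls: active = inhibition above 50%; inactive = the rest.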
Use one of these outcomes when replying: TRUE for active, FALSE for inactive

Identify the outcome logged in this assay for the compound shown: "Cc1nc(C)c(CC(=O)Nc2cccc(-c3cccc(-c4nc5c(C)cccc5[nH]4)c3)c2)s1" FALSE

Per the records of this test, what outcome belongs to COc1ccccc1C1CCN(C2CCC(NC(=O)/C=C/c3cc(C(F)(F)F)cc(C(F)(F)F)c3)CC2)CC1 (stereo not drawn) ? FALSE

GET /call?item= "CC1(C)CCNc2cc(NC(=O)c3ccc(-c4ncccc4C(F)(F)F)cc3)ccc21" returns the recorded outcome of this test. FALSE

Please share the test call associated with "CN1CCN(CCCN(Cc2cccc(-c3ccc(CNC4CCCC4)cc3)c2)C(=O)/C=C/c2ccccc2)CC1" . TRUE

----------
tgt: Plasmodium falciparum protein kinase 6 (PK6, PF3D7_1337100)
method: PfPK6 kinase inhibitors, biochemical, TCAMS library (AID 1159586)
testContext: recombinant PfPK6, Kinase-Glo ATP depletion luminescence
Results with a measured potency or affinity are listed apart. Calls of active or inactive are those of the source. How the calls were made is not given here.
measurementName: outcome

In the examples that follow, each entry is paired with its recorded outcome.
COc1ccc(-c2nc(NCc3ccccc3)c3cc(OC)c(OC)cc3n2)cc1
inactive
O=C(Nc1ccc(N2CCCN(Cc3cccc(F)c3)CC2)cc1)c1cccs1
inactive
NC1CCN(c2nc(NCCCc3ccc(O)cc3)nc(NCc3ccccc3-c3ccc(C(F)(F)F)cc3)n2)CC1
inactive
CCN(CC)C(=NCCCCCCN=C(/N=C(\N)Nc1ccc(Cl)c(Cl)c1)N(CC)CC)/N=C(\N)Nc1ccc(Cl)c(Cl)c1
inactive

Report measured outcome; entry is "O=C(Nc1cccc(-c2ccc(-c3nc4ccc(C(F)(F)F)cc4[nH]3)s2)c1)c1cnc[nH]1" inactive

----------
Consider the following compounds and their measured inhibition readings.
tgt: L-lactate dehydrogenase (Plasmodium falciparum (isolate CDC / Honduras))
method: PfLDH activity inhibition – cell lysate, 3D7 strain, counter-screen for P. falciparum growth inhibition project (AID 2304);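 note: 0% = vehicle and 100% = reference inhibitor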
testContext: P. falciparum 3D7 crude extract, LDH APAD/NBT absorbance; at 2 µM; stronger effect = higher value
Could you give me the number in %? Just the number is fine.

Use these answered entries as a reference point.
Fc1ccc(CNc2ccc3ncc(-c4cccnc4)n3n2)cc1
-2
Cn1nc(-c2ccc(NC(=O)Nc3cc(C(F)(F)F)cc(C(F)(F)F)c3)c(F)c2)c2cnc(NCCN3CCOCC3)nc21
-6
CC(C)(C)c1ccc(NC(=O)c2cccc(CN3CCCN(Cc4cccc(Cl)c4)CC3)c2)cc1
3
CC(=O)Nc1cccc(C(=O)Nc2cccc(-c3ccc(-c4nc5ccc(F)cc5[nH]4)cc3)c2)c1
5

Now for another entry.
Name the recorded inhibition of the compound listed here: "COc1cc2nc(NCCn3nc(C)cc3C)nc(NCCc3ccccc3)c2cc1OC" -3

----------
method: inhibition of 3D7 malaria parasite growth – strain 3D7 (AID 2306);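 note: 0% = DMSO wells and 100% = chloroquine plus artemisinin control wells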
testContext: P. falciparum 3D7 erythrocytic growth, LDH absorbance, 72 h; at 2 µM; stronger effect = higher value
measurementName: growth inhibition (%)
Output spec: scalar in %, unitless text.

Here is how some compounds turned out for growth inhibition.
Cc1[nH]c(C)c(-c2ccc(Oc3cccc(Cl)c3)cc2)c(=O)c1Cl
99
Cc1cc2cc(NC(=O)Nc3ccnc4ccccc34)ccc2n1C
90
CN1CCN(CCCNCc2ccccc2-c2cccc(CNCc3ccc4c(c3)OCO4)c2)CC1
102

Retrieve growth inhibition measured for CCN1C(=O)C(CC(=O)Nc2cccc(Cl)c2)N(Cc2ccc(OC)c(OC)c2)C1=S (centres undefined) and print it. 100

Return value of growth inhibition for input "COc1ccc(Nc2ncc3c(-c4cccc(NC(=O)Cc5cccnc5)c4)c[nH]c3n2)cc1OC" , no commentary. 98

Please indicate growth inhibition recorded for "COc1cccc(NC(=O)NC2CCN(CCCCCNC(=O)/C=C/c3ccc(Cl)c(Cl)c3)CC2)c1" 102

Write down growth inhibition measured for item "CCNc1cc(C(=O)N[C@@H](Cc2ccccc2)[C@H](O)CNC(C)(C)c2cccc(OC)c2)cc(N2CCCC2=O)c1" 100

Determine its reported growth inhibition: "O=C(Nc1cccc(C(F)(F)F)c1)Nc1ccc2nonc2c1" 98

Identify growth inhibition associated with the compound "CCCc1cc(NC2CCN(C)CC2)nc(Nc2ccc(F)cc2)n1" 95

Provide growth inhibition value for the following compound: "CCOC(=O)[C@H](Cc1cc([N+](=O)[O-])c(Oc2ccc(OC)c(Cc3ccc(OC)c(C(C)C)c3)c2)c([N+](=O)[O-])c1)NC(=O)C(F)(F)F" 94

Read the entry "COc1ccc2nc(C)cc(NCc3cccc4ccccc34)c2c1" and write its reported growth inhibition. 102

State its growth inhibition: "OCC1CCN(Cc2ccc(-c3cccc(-c4nc5ccc(C(F)(F)F)cc5[nH]4)c3)cc2)CC1" 99

Input "CCOC(=O)CC[C@H](NC(=O)c1ccc(NS(=O)(=O)c2ccc(-c3cnc(N)[nH]c3=O)cc2)cc1)C(=O)OCC" , output reported growth inhibition. 95

Output measured growth inhibition for this item: "CCOc1ccc2c(NN=Cc3cc(OC)c(OC)cc3OC)cc(C)nc2c1" 101

Give the reported value of growth inhibition for this record: "Cc1cc(-c2ccnc(Nc3cccc(C#N)c3)n2)cc(C)c1O" 88

Specify growth inhibition for "COc1cccc(CN2CCCN(Cc3cccc(NC(=O)c4ccc(Cl)c(Cl)c4)c3)CC2)c1" and stop. 89

For the compound "COc1ccc(C(=O)Nc2nonc2-c2ccc(OC)c(OC)c2)cc1Cl" , report growth inhibition. 97

Report measured growth inhibition; entry is "CCCCOc1ccc(-n2c(Nc3ccccc3)nc3cc(S(N)(=O)=O)ccc32)cc1" 90

Please report growth inhibition for the following compound: "O=C(/C=C/c1ccc(Cl)c(Cl)c1)NCCCCCN1CCC(NC(=S)Nc2ccc(Cl)c(Cl)c2)CC1" 99

Origin of values: PubChem BioAssay
